// provenance: patent US20250312499A1

Molecular target: T1, human kisspeptin receptor (KISS1R) (human, UniProt Q969F8 1-398)
T1 construct: whole, on cells; Assayed as crude membrane fractions of tetracycline-induced Flp-In T-Rex 293 cells expressing the receptor; also called GPR54; hKiSSR
T1 sequence (Q969F8 whole entry): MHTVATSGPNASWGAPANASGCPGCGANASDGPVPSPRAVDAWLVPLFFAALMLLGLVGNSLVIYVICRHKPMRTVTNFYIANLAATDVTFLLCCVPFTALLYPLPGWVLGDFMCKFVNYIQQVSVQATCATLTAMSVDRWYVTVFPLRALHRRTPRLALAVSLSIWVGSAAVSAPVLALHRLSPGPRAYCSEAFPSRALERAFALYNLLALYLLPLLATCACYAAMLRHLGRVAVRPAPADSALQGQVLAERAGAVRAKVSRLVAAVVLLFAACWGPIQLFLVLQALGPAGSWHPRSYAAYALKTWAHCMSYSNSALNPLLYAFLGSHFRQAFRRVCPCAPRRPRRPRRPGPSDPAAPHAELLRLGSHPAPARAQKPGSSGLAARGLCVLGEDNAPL
Test: radioligand competition, hKISS1R membranes; legend: A is <10 nM
Numbered stars: 1 amine (or outer) side, 2 acyl side, 3 side chain; on linkers, the order of the positions; unused ones are H or OH. Square brackets hold non-standard residues; d marks the D form. * marks the point of attachment. X2 = 4‑amino‑1‑((3-fluoro-4-methylbenzyl)glycyl)piperidine‑4‑carboxylic acid, Cc1ccc(CN(CC(=O)N2CCC(N[*:1])(C(=O)[*:2])CC2)[*:3])cc1F; X10 = 3‑(2-(2-(3-(4-iodophenyl)propanamido)ethoxy)ethoxy)propanoyl, O=C(CCc1ccc(I)cc1)NCCOCCOCCC(=O)*; DOTA = O=C(O)CN1CCN(CC(=O)O)CCN(CC(=O)*)CCN(CC(=O)O)CC1; Api(1-amidino) = N=C(N)N1CCC(N)(C(=O)O)CC1; 4Pal = N[C@@H](Cc1ccncc1)C(=O)O; d4Pal = N[C@H](Cc1ccncc1)C(=O)O; Ahx = NCCCCCC(=O)O; azaGly = NNC(=O)O
MEASURED_ENDPOINT: Ki

Take a look at these entries with their results.
{DOTA-Ahx}-[dY][dW]NTF[azaGly]L[X2]W-NH2 (also: lutetium(III) chelated by DOTA, also called 1-Lu) [Lu Complex of Compound 1]    < 10 nM
{DOTA-Ahx}-F[azaGly]L[X2]W-NH2 (also: nonradioactive indium(III) chelated by DOTA, also called 2-In) [In Complex of Compound 2]    < 10 nM
{DOTA-Ahx}-[dY][dW]NTF[azaGly]L[X2]W-NH2 (also: nonradioactive gallium(III) chelated by DOTA, also called 1-Ga) [Ga Complex of Compound 1]    < 10 nM

stdin: Please list Ki recorded for the binder {DOTA-Ahx}-[dY][dW]NTF[azaGly]L[X2]W-NH2 (also: nonradioactive indium(III) chelated by DOTA, also called 1-In) [In Complex of Compound 1]
stdout: < 10 nM

stdin: Please list Ki recorded for the binder {DOTA}-G[dY][d4Pal]NTF[azaGly]L[X2]Y-NH2 (also: nonradioactive indium(III) chelated by DOTA, also called 193-In) [Indium complex of Compound 193]
stdout: < 10 nM

stdin: Please list Ki recorded for the binder {DOTA-Ahx}-[dY][dW]NTF[azaGly]L[X2][4Pal]-NH2 (also: nonradioactive indium(III) chelated by DOTA, also called 105-In) [In Complex of Compound 105]
stdout: < 10 nM

stdin: Please list Ki recorded for the binder {DOTA-Ahx}-[dY][dW]NTF[azaGly]L[Api(1-amidino)]W-NH2 (also: nonradioactive indium(III) chelated by DOTA, also called 6-In) [In Complex of Compound 6]
stdout: < 10 nM

stdin: Please list Ki recorded for the binder X10-[dY]K(DOTA)NTF[azaGly]L[Api(1-amidino)]W-NH2 (also: indium(III) chelated by DOTA on Lys, also called 196-In) [In Complex of Compound 196]
stdout: < 10 nM
